Origin of values: patent US8278037B2

Target: NGalNAc-T2 (Homo sapiens, UniProt Q6L9W6, K411R)
Assay: Requirements of divalent cations in the activity
Assay type: biochemical
Settings: divalent cation etc. added; MES (pH 6.5)
Excerpt: In addition, the value (263.21 dpm) of MES (pH 6.75) was adopted as a blank value in the case of a non-enzyme. Further, when pH of HEPES buffer was 7.4 for NGalNAc-T1 and 6.75 for NGalNAc-T2, the highest value was shown. […] Hereinafter, MES (pH 6.5) was used in each of experiments. Generally, glycosyl transferases require frequently divalent cations. The activity of each enzyme was studied by adding various divalent cations. […]
endpointName: Incorporation of radioactivity (A) (dpm)
One number for each entry, in dpm.

Some compounds with recorded Incorporation of radioactivity (A):
| structureAsSmiles | studySystem | Incorporation of radioactivity (A), dpm |
| --- | --- | --- |
| [Cl][Mn][Cl] | NGalNAc-T2 (Homo sapiens, UniProt Q6L9W6, K411R) | 1484.43 |
| [Cl-].[Cl-].[Mg+2] | NGalNAc-T2 (Homo sapiens, UniProt Q6L9W6, K411R) | 3124.16 |

Provide each entry's Incorporation of radioactivity (A) from the list below.
1. [Cl-].[Cl-].[Zn+2]
2. O=S(=O)([O-])[O-].[Cd+2]
3. [Cl][Cu][Cl]
4. [Ca+2].[Cl-].[Cl-]
5. O=C(O)CN(CCN(CC(=O)O)CC(=O)O)CC(=O)O

A:
[187.59, 217.92, 218.35, 217.83, 235.28]
